Entry source: ChEMBL document CHEMBL4627300

- TEST METHOD NOTES: Permeability of compound in buffer solution at pH 7.4 by PAMPA method
- Type: ADME
- CONDITION LABEL: read-out: permeability
MEASUREMENT KIND: Papp (×10⁻⁶ cm/s)

COc1cc(CN(C)C(=O)c2c(OCCCC3CCN(C(=O)OC(C)(C)C)CC3)c3cnccc3n(C)c2=O)cc(OC)c1 26

a: CN(Cc1cc(C(F)(F)F)cc(C(F)(F)F)c1)C(=O)c1c(OCCCC2CCN(C(=O)OC3(C)CC3)CC2)c2cccnc2n(C)c1=O
b: CN(Cc1cc(C(F)(F)F)cc(C(F)(F)F)c1)C(=O)c1c(OCCCC2CCN(C(=O)OC(C)(C)C)CC2)c2ccccc2n(C)c1=O
c: CCOc1cc(CN(C)C(=O)c2c(OCCCC3CCN(C(=O)OC(C)(C)C)CC3)c3ccccc3n(C)c2=O)cc(OCC)c1
d: COc1cc(CN(C)C(=O)c2c(OCCCC3CCN(C(=O)OC4(C)CC4)CC3)c3cccnc3n(C)c2=O)cc(C(F)(F)F)c1
Query :: hey, can you rank those molecules up there by Papp? biggest number first please State the ranking by listing the labels in the requested order.
Result :: a, d, c, b

###

- TEST METHOD NOTES: MRT in KK-AY/Ta mouse at 100 mg/kg, po
- Format: ADME, organism-based
- CONDITION LABEL: in vivo
MEASUREMENT KIND: MRT (h)
# output: bare number, implied unit h

// MRT lookup, compound = `COc1cc(CN(C)C(=O)c2c(OCCCC3CCN(C(=O)OC4(C)CC4)CC3)c3cccnc3n(C)c2=O)cc(C(F)(F)F)c1` , result: 3

###

- TEST SYSTEM: UniProt Q8NHU3
- Sequence (Q8NHU3 whole entry): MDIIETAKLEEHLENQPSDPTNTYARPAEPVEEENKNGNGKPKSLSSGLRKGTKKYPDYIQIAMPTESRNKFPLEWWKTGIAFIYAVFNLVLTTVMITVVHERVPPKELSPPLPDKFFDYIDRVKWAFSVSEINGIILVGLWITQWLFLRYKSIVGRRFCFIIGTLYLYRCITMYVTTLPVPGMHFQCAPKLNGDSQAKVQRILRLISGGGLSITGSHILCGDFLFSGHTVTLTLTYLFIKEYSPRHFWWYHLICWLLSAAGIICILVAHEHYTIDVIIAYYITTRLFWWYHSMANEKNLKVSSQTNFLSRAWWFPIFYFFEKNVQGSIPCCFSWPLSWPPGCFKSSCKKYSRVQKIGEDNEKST
- TEST METHOD NOTES: Inhibition of human recombinant C-terminal FLAG-tagged SMS2 expressed in Freestyle293 cell membrane using C14-phosphatidylcholineD72 and C17-ceramide pre-incubated for 60 mins followed by incubation with substrate for 30 mins measured by RapidFire/MS assay
pIC50: −log10 of the molar value.
MEASUREMENT KIND: pIC50

CCOc1cc(CN(C)C(=O)c2c(OCCCC3CCN(C(=O)OC(C)(C)C)CC3)c3ccccc3n(C)c2=O)cc(OCC)c1 6.42
COc1cc(CN(C)C(=O)c2c(OCCCC3CCN(C(=O)OC(C)(C)C)CC3)c3cnccc3n(C)c2=O)cc(OC)c1 5.80
CN(Cc1cc(C(F)(F)F)cc(C(F)(F)F)c1)C(=O)c1c(OCCCC2CCN(C(=O)OC3(C)CC3)CC2)c2cccnc2n(C)c1=O 7.33

a: CC(C)CCOc1c(C(=O)N(C)Cc2cc(C(F)(F)F)cc(C(F)(F)F)c2)c(=O)n(C)c2ccccc12
b: CN(Cc1cc(C(F)(F)F)cc(C(F)(F)F)c1)C(=O)c1c(OCCCC(F)(F)F)c2ccccc2n(C)c1=O
Query :: # argmax over pIC50 for candidates a and b Refer to your chosen entry by its label in the reply.
Result :: b

###

- TEST SYSTEM: Phosphatidylcholine:ceramide cholinephosphotransferase 2 (Mus musculus)
- Sequence (Q9D4B1 whole entry): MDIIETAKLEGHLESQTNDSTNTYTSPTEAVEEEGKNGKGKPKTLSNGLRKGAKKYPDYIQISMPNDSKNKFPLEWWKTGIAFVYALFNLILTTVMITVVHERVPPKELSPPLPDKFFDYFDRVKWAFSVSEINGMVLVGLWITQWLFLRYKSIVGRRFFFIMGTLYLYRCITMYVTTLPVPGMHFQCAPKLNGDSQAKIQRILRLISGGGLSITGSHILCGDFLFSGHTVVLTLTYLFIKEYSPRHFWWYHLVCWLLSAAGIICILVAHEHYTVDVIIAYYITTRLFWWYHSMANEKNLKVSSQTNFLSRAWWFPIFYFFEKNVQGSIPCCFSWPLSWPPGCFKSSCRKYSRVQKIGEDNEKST
- TEST METHOD NOTES: Inhibition of mouse recombinant C-terminal FLAG-tagged SMS2 expressed in mammalian expression system using C14-phosphatidylcholineD72 and C17-ceramide pre-incubated for 60 mins followed by incubation with substrate for 30 mins measured by RapidFire/MS assay
MEASUREMENT KIND: IC50 (µM)

// known answers, use as guide
COMPOUND	MEASUREMENT UNIT	IC50
COc1cc(CN(C)C(=O)c2c(OCCCC3CCN(C(=O)OC4(C)CC4)CC3)c3cccnc3n(C)c2=O)cc(OC)c1	µM	0.014
COc1cc(CN(C)C(=O)c2c(OCCCC3CCN(C(=O)OC(C)(C)C)CC3)c3ccccc3n(C)c2=O)cc(OC)c1	µM	0.019
CC(C)CCOc1c(C(=O)N(C)Cc2cc(C(F)(F)F)cc(C(F)(F)F)c2)c(=O)n(C)c2ccccc12	µM	0.26
COc1cc(CN(C)C(=O)c2c(OCCCC3CCN(C(=O)OC(C)(C)C)CC3)c3cccnc3n(C)c2=O)cc(OC)c1	µM	0.032

A: CN(Cc1cc(C(F)(F)F)cc(C(F)(F)F)c1)C(=O)c1c(OCCCc2ccccc2)c2ccccc2n(C)c1=O
B: COc1cc(CN(C)C(=O)c2c(OCCCC3CCN(C(=O)OC4(C)CC4)CC3)c3cccnc3n(C)c2=O)cc(C(F)(F)F)c1
Query :: // task: argmin of IC50 over [ A , B ] Refer to your chosen entry by its label in the reply.
Result :: B
(B: 0.0022 µM, A: 0.12 µM)
